B1: IKZF1 (parent)
chain: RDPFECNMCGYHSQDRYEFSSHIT

Variants of: B1
Test: protein stability index of a GFP-peptide fusion (GPS, HEK-293T) (PSI 1-6); higher = more stable;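 note: lentivirally expressed fusions sorted by FACS into six bins by GFP to DsRed ratio, PSI derived from sequencing read proportions per bin multiplied by bin number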
Conditions: c terminus: a fixed tail appended
experimental readout: protein stability index
Could you respond with only the numeric value?

Worked examples, 4 variants total:
sequence text | reading
RDPFECNMCGYHSQDKYEFSSHIT [R16K] | 2.01
RDPFECNMCGYHSQDRYEFESHIT [S20E] | 2.64
DDPFECNMCGYHSQDRYEFSSHIT [R1D] | 2.73
RIPFECNMCGYHSQDRYEFSSHIT [D2I] | 2.2

query: Return protein stability index for the following variant: RDPFECKMCGYHSQDRYEFSSHIT [N7K]
result: 2.37

query: Return protein stability index for the following variant: RDPFECNTCGYHSQDRYEFSSHIT [M8T]
result: 2.39

query: Return protein stability index for the following variant: RDPFECNMCGYHSIDRYEFSSHIT [Q14I]
result: 2.13
